Provide the recorded pIC50 for the entries that follow.
MEASUREMENT TARGET: EGFR (Homo sapiens)
Construct: Kinases are expressed as either kinase domains or full length constructs; made in house
Sequence (P00533 25-1210, species assumed): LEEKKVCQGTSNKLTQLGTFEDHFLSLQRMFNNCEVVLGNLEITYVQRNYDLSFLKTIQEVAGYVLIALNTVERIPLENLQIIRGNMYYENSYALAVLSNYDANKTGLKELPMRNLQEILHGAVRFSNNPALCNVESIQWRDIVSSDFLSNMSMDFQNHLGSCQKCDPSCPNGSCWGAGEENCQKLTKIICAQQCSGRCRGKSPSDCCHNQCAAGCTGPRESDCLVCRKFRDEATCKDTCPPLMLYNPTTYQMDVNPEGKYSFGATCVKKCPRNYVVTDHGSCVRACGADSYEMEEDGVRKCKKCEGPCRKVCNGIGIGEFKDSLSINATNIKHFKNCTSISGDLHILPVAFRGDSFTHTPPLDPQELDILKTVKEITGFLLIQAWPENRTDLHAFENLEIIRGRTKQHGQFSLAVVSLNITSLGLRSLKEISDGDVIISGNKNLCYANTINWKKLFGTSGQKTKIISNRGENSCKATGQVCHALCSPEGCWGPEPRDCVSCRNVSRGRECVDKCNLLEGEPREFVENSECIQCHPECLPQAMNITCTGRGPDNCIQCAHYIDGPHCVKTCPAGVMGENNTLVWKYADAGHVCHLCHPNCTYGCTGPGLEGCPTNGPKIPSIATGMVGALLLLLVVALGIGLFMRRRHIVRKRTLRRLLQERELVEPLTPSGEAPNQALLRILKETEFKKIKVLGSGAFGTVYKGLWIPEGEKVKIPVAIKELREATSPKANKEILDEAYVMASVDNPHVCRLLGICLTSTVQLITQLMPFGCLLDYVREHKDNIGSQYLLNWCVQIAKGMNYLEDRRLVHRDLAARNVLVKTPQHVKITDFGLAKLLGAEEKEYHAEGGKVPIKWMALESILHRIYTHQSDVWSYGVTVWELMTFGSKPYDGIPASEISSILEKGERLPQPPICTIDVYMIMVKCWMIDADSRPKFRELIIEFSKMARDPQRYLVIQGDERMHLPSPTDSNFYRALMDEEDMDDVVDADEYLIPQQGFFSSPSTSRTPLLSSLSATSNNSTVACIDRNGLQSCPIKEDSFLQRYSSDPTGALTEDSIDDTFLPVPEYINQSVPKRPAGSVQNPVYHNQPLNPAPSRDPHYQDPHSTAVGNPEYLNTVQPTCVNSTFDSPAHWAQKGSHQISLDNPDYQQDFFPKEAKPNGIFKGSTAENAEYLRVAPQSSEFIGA
METHOD SUMMARY: Kinase inhibition assay (33P transfer), EGFR
Assay type: biochemical
CONDITION LABEL: Table 2, kinase inhibition class; read-out: EGFR-1
pIC50: −log10 of the molar value.

Example molecules with recorded pIC50:
[
  {
    "QUERY SMILES": "COc1cc(Nc2ncnc(-n3ccc4c(OC)cccc43)n2)cc(OC)c1OC",
    "pIC50": "< 4.96"
  },
  {
    "QUERY SMILES": "c1csc(-c2ncnc(Nc3ccc(N4CCOCC4)cc3)n2)c1",
    "pIC50": "< 4.88"
  },
  {
    "QUERY SMILES": "COc1cc(Nc2ncnc(Nc3ccc(C)c(N)c3)n2)cc(OC)c1OC",
    "pIC50": "> 5.98"
  }
]

Give pIC50 for each of the items listed below.
1. COc1cc(Nc2ncnc(-n3cc(CC(N)=O)c4ccccc43)n2)cc(OC)c1OC
2. COc1cc(Nc2ncnc(Nc3ccc(NCc4ccccc4)cc3)n2)cc(OC)c1OC
3. CN(c1cccc(Cl)c1)c1ncnc(N[C@@H]2CCN(Cc3ccccc3)C2)n1
4. COc1cc(Br)ccc1Nc1nc2ccccc2n1-c1ncnc(Nc2cc(OC)c(OC)c(OC)c2)n1
5. C=CCNc1cc(-c2ncnc(Nc3cc(OC)c(OC)c(OC)c3)n2)ccn1

result:
["< 4.98", "< 5.01", "< 4.94", "< 5.11", "< 4.94"]

* * *

MEASUREMENT TARGET: Fyn (Homo sapiens, UniProt P06241)
Sequence (P06241 whole entry, species assumed): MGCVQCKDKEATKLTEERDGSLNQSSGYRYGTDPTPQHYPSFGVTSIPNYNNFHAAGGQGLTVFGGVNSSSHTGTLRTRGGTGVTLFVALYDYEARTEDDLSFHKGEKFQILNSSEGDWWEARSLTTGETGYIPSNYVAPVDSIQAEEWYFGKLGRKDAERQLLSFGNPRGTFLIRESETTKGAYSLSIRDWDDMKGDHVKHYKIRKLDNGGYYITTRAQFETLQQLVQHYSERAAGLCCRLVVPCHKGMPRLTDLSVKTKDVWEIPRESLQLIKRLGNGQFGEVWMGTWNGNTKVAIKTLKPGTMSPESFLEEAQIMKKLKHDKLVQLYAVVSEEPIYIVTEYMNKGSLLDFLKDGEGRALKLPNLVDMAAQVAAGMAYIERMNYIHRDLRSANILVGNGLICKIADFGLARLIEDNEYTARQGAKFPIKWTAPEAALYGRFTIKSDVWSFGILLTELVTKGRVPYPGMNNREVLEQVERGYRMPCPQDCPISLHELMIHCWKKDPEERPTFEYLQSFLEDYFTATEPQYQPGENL
pIC50: −log10 of the molar value.
TEST READOUT: pIC50

Before answering, review these 3 worked examples.
[
  {
    "MOLECULE": "COc1cc(Nc2ncnc(N3CCCc4ccccc43)n2)cc(OC)c1OC [Compound 609]",
    "pIC50": "> 5.99"
  },
  {
    "MOLECULE": "COc1cc(Nc2ncnc(-n3c(N)nc4cc([N+](=O)[O-])ccc43)n2)cc(OC)c1OC [Compound 294]",
    "pIC50": "< 4.99"
  },
  {
    "MOLECULE": "COc1cc(Nc2ncnc(Nc3cc(F)ccc3F)n2)cc(OC)c1OC [Compound 316]",
    "pIC50": "4.94 to 5.05"
  }
]

For each of the items listed, what is its pIC50?
1. COc1cc(Nc2ncnc(-n3ccc4ccccc43)n2)cc(OC)c1OC [Compound 185]
2. COc1cc(Nc2ncnc(-c3cccnc3NCc3ccc(F)cc3)n2)cc(OC)c1OC [Compound 1088]
3. CCc1cccc(Nc2ncnc(-n3c(N)nc4ccccc43)n2)c1 [Compound 655]
4. OCc1ccc(Nc2ncnc(Nc3cc(-c4ccco4)n[nH]3)n2)cc1 [Compound 430]

result:
1: < 4.92; 2: < 5.01; 3: < 4.87; 4: 5.16 to 5.94

query: GET /values?readout=pIC50&item= COc1cc(Nc2ncnc(-n3c(N)nc4cc(C(F)(F)F)ccc43)n2)cc(OC)c1OC [Compound 292]
result: 5.12 to 5.28

* * *

MEASUREMENT TARGET: c-Met (Homo sapiens, UniProt P08581)
Construct: Kinases are expressed as either kinase domains or full length constructs; made in house
Sequence (P08581 25-1390): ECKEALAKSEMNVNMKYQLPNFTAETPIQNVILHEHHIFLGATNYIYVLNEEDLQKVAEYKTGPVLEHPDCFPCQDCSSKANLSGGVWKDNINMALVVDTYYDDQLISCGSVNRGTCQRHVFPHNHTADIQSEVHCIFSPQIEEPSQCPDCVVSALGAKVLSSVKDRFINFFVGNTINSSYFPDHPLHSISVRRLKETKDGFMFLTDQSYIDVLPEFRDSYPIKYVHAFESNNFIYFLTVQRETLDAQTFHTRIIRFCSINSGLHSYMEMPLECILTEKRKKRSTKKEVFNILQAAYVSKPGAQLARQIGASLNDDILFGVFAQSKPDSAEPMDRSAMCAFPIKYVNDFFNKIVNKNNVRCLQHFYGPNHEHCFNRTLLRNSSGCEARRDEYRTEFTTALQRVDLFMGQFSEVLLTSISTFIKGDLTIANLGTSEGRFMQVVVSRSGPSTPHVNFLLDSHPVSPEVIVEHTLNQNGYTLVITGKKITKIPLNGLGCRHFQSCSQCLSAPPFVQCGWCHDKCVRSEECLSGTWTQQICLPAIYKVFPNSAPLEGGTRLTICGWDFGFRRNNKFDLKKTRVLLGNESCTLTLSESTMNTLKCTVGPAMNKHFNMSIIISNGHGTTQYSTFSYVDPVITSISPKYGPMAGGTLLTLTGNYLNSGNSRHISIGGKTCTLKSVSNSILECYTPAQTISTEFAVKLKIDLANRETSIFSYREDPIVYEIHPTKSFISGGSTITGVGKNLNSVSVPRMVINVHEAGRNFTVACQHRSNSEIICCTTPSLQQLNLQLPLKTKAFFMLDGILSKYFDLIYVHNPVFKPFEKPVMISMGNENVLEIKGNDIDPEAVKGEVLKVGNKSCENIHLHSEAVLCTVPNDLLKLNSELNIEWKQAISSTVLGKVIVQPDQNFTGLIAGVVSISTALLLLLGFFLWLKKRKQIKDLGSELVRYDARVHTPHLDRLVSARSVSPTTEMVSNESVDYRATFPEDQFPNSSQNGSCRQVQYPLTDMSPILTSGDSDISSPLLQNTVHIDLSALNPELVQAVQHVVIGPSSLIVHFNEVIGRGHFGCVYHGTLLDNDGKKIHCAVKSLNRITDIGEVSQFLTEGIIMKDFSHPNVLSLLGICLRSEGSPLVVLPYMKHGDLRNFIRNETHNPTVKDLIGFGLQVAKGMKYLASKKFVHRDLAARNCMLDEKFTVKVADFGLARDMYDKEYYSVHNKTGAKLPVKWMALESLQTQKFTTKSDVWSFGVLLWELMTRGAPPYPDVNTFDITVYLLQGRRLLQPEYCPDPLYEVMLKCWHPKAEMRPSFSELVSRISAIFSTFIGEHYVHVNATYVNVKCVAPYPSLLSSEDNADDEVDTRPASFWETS
METHOD SUMMARY: Kinase inhibition assay (33P transfer), c-Met
Format: biochemical
CONDITION LABEL: Table 2, kinase inhibition class; read-out: Met-1
TEST READOUT: IC50

[
  {
    "QUERY SMILES": "Nc1ncnc(Nc2ccc(F)cc2F)n1",
    "TEST READOUT": "IC50",
    "EXPERIMENTAL VALUE": "> 20.2 µM"
  }
]

Please go through the list and note IC50 for each compound.
1. c1ccc(CNc2nc3ccccc3n2-c2ncnc(Nc3cccc(Cc4nnn[nH]4)c3)n2)nc1
2. COc1cc(Nc2ncnc(-n3c(Nc4cccc(C)c4)nc4ccccc43)n2)cc(OC)c1OC
3. COc1ccc(Nc2ncnc(Nc3ccc(OCc4ccccc4)cc3)n2)cc1O

result:
0.839 to 5.04 µM
> 9.31 µM
> 10.8 µM

I'm hoping you can list IC50 for every compound here, please.
1. COc1cc(Nc2ncnc(-n3c(NCCCc4ccccc4)nc4ccccc43)n2)cc(OC)c1OC
2. COc1cc(Nc2ncnc(N3CCc4ccccc43)n2)cc(OC)c1OC

result:
1: > 8.8 µM; 2: 9.22 to 11.9 µM
